Data origin: PubChem BioAssay (NCATS)

# targetEntity: Phospholipid hydroperoxide glutathione peroxidase GPX4 (Homo sapiens)
# testMethodNotes: Primary qHTS Assay for Inhibitors of Recombinant Selenoprotein Glutathione Peroxidase 4 (GPX4) (AID 1845192); note: nearly all actives have a fitted effect of over 65% in size
# conditionSet: recombinant GPX4, GR-coupled NADPH fluorescence, 15 min; series mostly up to 50 µM
Records with an inconclusive call do not appear. Calls of active or inactive are those of the source. Calls come from the whole dose curve; as a rule, active = well fitted inhibition curve with a large enough effect; inconclusive = small, poorly fitted or top-dose-only effect; inactive = flat fitted curve, though single readings scatter.
Possible outcomes: YES (active), NO (inactive)

1) C[C@H](O)C(=O)C1=Nc2c(nc(N)[nH]c2=O)NC1    NO
2) N[C@@H](CS(=O)O)C(=O)O    NO
3) O=C1Nc2ccc(I)cc2/C1=C/c1cc(Br)c(O)c(Br)c1    NO
4) CN1CCCC1CCOC(C)(c1ccccc1)c1ccc(Cl)cc1 (configuration not stated)    NO
5) N=C(N)SCCN    NO
6) C=C(C)C1CC=C(C(=O)O)CC1 (configuration not stated)    NO
7) O=C(O)C1CN(CCCP(=O)(O)O)CCN1 (configuration not stated)    NO
8) O=c1[nH]c2cc(Cl)ccc2c(O)c1-c1ccc(Oc2ccccc2)cc1    NO
9) CC(C)[C@@H]1CC[C@@H](C)C[C@@H]1P(=O)(c1ccccc1)c1ccccc1    NO
10) COC(=O)C(N)Cc1ccc(Cl)cc1 (configuration not stated)    NO
11) CC[C@@H]1Cc2cc(O)ccc2C2=C1c1ccc(O)cc1C[C@H]2CC    NO
12) NS(=O)(=O)c1cccc2c1c([N+](=O)[O-])cc1nc(O)c(O)nc12    NO
13) CC(N)(Cc1ccc(O)c(O)c1)C(=O)O (configuration not stated)    NO
14) O=[N+]([O-])c1cccc2cn[nH]c12    NO
15) O=C(O)C1=CCCNC1    NO
16) CNCCNS(=O)(=O)c1cccc2cnccc12    NO
17) N#C/C(=C\c1ccc(O)c(O)c1)C(=O)NCCCNC(=O)/C(C#N)=C/c1ccc(O)c(O)c1    NO
18) O=C(O)c1cccnc1C(=O)O    NO
19) N=S(=O)(O)Cc1noc2ccccc12    NO
20) Cc1cccc(C2CN(C)CCc3c2cc(O)c(O)c3Cl)c1 (configuration not stated)    NO
21) NC[C@@H]1O[C@H](c2ccccc2)Cc2c1ccc(O)c2O    NO
22) C[N+](C)(C)CC=O    NO
23) CCCCOc1cc(CC2CNC(=O)N2)ccc1OC (configuration not stated)    NO
24) Cn1c(=O)c2[nH]c(-c3ccc(S(=O)(=O)O)cc3)nc2n(C)c1=O    YES
25) CN1CC(O)C(O)C(O)C1CO (configuration not stated)    NO
26) CCCCCCN(CCCCCC)C(=O)Cc1c(-c2ccc(F)cc2)[nH]c2ccccc12    NO
27) O=c1onc2cnc3ccccc3n12    NO
28) O=c1[nH]c(=O)c2nc3ccccc3nc2[nH]1    NO
29) NC(Cc1cccc(-c2ccccc2CP(=O)(O)O)c1)C(=O)O (configuration not stated)    NO
30) OC[C@H]1NC[C@@H](O)[C@@H]1O    NO
31) C/C(=C\c1ccc(C(=O)O)cc1)c1ccc2c(c1)C(C)(C)CCC2(C)C    NO
32) CCCc1c(-c2ccc(O)cc2)nn(-c2ccc(O)cc2)c1-c1ccc(O)cc1    NO
